Reference source: patent US20210255193A1

target: PFKL 6-phosphofructokinase, liver type (Homo sapiens, UniProt P17858); construct: isoTOP-ABPP experiments performed in cell lysates (in vitro); endogenous in cells; host or cells: soluble proteome of human cancer cell lines (MDA-MB-231; Ramos and Jurkat also prepared); assay: competitive isoTOP-ABPP; assay type: binding; conditions: P17858_K715; 50 uM, 231 sol, in vitro
Sequence (P17858 whole entry, the tested form may be a part): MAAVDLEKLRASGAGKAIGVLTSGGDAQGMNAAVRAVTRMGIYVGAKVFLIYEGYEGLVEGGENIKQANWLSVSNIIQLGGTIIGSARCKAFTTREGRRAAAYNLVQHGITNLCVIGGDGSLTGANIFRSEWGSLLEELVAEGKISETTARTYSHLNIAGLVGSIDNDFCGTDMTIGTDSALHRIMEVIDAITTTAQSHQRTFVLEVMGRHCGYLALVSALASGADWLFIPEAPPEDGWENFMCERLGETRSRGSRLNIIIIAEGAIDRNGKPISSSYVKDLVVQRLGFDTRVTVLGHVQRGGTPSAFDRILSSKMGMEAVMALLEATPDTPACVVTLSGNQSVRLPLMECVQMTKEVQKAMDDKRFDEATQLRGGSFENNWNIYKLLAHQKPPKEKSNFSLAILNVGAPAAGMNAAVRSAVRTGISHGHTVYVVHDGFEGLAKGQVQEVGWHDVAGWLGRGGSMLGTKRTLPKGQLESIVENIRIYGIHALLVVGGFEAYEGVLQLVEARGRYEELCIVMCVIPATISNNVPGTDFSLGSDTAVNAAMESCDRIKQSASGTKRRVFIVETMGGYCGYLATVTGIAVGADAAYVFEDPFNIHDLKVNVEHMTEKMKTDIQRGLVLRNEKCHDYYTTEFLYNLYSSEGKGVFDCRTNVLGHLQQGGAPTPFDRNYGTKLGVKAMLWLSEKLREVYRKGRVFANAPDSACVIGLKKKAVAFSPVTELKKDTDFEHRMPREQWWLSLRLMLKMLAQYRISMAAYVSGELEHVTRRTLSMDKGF
Rule: R value (DMSO/fragment) for probe 1 labeling of 1 or more gives TRUE; anything lower gives FALSE.

- COMPOUND: "COc1cc(CCC(=O)Oc2c(F)c(F)c(F)c(F)c2F)cc(OC)c1OC [fragment 23]"
  GROUP: "FALSE"
- COMPOUND: "O=C(Oc1c(F)c(F)c(F)c(F)c1F)c1cc(C(F)(F)F)cc(C(F)(F)F)c1 [fragment 21]"
  GROUP: "FALSE"
- COMPOUND: "O=C(CCc1cn(-c2ccccc2)nc1-c1ccccc1)Oc1c(F)c(F)c(F)c(F)c1F [fragment 19]"
  GROUP: "TRUE"
- COMPOUND: "O=C(Oc1c(F)c(F)c(F)c(F)c1F)C(c1ccccc1)c1ccccc1 [fragment 20, Pentafluorophenyl 2,2-diphenylacetate]"
  GROUP: "TRUE"
- COMPOUND: "Cn1cc(CC(=O)Oc2c(F)c(F)c(F)c(F)c2F)c2ccccc21 [fragment 22]"
  GROUP: "TRUE"
